# System: SARS-CoV-2
# experimentalProtocol: microbe, parasite or virus in culture
# testContext: Severe acute respiratory syndrome coronavirus 2, nCoV-2019 BetaCoV/Wuhan/WIV04/2019, Vero C1008
attributeMeasured: pEC50
Recall that pEC50 is obtained by taking minus log10 of the concentration measured in molar.

Which value of pEC50 has been reported for `O=C[C@H](C[C@@H]1CCNC1=O)NC(=O)[C@H](Cc1cccc(F)c1)NC(=O)c1cc2ccccc2[nH]1` in the records?
6.14
